- Test system: ATP;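 note: ATP exposure 15 min at 22 °C before imaging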
- experimentalProtocol: switch fluorescence ratio, 500 uM ATP over buffer (Cy3 cluster intensity, sum of 5 cycles each) (fold (ratio)); higher = stronger signal-on switching upon ATP binding; sequences stand for … in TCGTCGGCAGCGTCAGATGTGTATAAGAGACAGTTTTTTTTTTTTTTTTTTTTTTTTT…TC
- measurementParameters: aptamer strand: ATP DNA aptamer (quencher-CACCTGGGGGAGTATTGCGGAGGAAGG + anchor), 100 nM annealed; ATP concentration: 500 uM
Respond with True for switch fluorescence ratio values of 1 and above, False for values below.

INSERT INTO assay_data (querysequence, assaysystem, class) VALUES
  ('TATGGTCGCT', 'ATP', 'True'),
  ('ACTTAACATT', 'ATP', 'True'),
  ('GGGCTAGTGT', 'ATP', 'False'),
  ('CAGATGCAGA', 'ATP', 'True'),
  ('TTCGTAACGC', 'ATP', 'True'),
  ('TAAAAAACGG', 'ATP', 'False'),
  ('TTATTTATTA', 'ATP', 'True'),
  ('CGAATCAATC', 'ATP', 'True'),
  ('GGGGGCAGGC', 'ATP', 'False'),
  ('AATAAGTTTT', 'ATP', 'False'),
  ('TCCAGGGGAT', 'ATP', 'True'),
  ('GGGTGTAGCG', 'ATP', 'False'),
  ('TACAGACCCG', 'ATP', 'True'),
  ('TTAACATACG', 'ATP', 'True'),
  ('TCGACCCAGC', 'ATP', 'True');

---

- System: ATP;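 note: ATP exposure 15 min at 22 °C before imaging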
- experimentalProtocol: switch fluorescence ratio, 500 uM ATP over buffer (Cy3 cluster intensity, sum of 5 cycles each) (fold (ratio)); higher = stronger signal-on switching upon ATP binding; sequences stand for … in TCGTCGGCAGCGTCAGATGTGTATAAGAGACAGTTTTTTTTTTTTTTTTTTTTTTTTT…TC
- measurementParameters: aptamer strand: ATP DNA aptamer (quencher-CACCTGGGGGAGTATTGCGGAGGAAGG + anchor), 100 nM annealed; ATP concentration: 500 uM
Reported switch fluorescence ratio values follow for various sequences
measuredEndpoint: switch fluorescence ratio

INSERT INTO results (querysequence, assaysystem, recordedvalue) VALUES
  ('TATGGTGCG', 'ATP', 0.984),
  ('TTGGGGAGTG', 'ATP', 0.988),
  ('ATCGATACTT', 'ATP', 1.07),
  ('TTTAAAGA', 'ATP', 0.991),
  ('TCTGGTTGT', 'ATP', 0.992),
  ('GCAGCCTGCT', 'ATP', 0.985),
  ('CCAGCGGCCA', 'ATP', 1.02),
  ('TAATTTTGGT', 'ATP', 0.985),
  ('ACGGATTTAG', 'ATP', 1.02),
  ('CGGCAGTGTG', 'ATP', 1.01),
  ('TTACGGTGAA', 'ATP', 1.07),
  ('CTAAAACTTG', 'ATP', 1.14),
  ('GTGAAAGGAG', 'ATP', 0.997),
  ('AGGTGGAGGG', 'ATP', 1),
  ('AAGATGTTAG', 'ATP', 0.993),
  ('ATCCGGGGAA', 'ATP', 1.02),
  ('CAAGTATTGT', 'ATP', 0.999),
  ('GAACGCCGGC', 'ATP', 0.939),
  ('GGTTAAAGCG', 'ATP', 1.02),
  ('TGGGTGTTAA', 'ATP', 0.974),
  ('CCGGGGGCTG', 'ATP', 1.04),
  ('AAAAGTAGAA', 'ATP', 0.992),
  ('ACGACCGGCA', 'ATP', 1.11),
  ('AGTTGTGGTA', 'ATP', 1),
  ('GTATTGGGTA', 'ATP', 0.99),
  ('TTGGTCGGGT', 'ATP', 1.02),
  ('TGGGGTAAAG', 'ATP', 1.01),
  ('TCTTTCACGC', 'ATP', 1.09),
  ('TTTTCAAAGC', 'ATP', 1.67),
  ('CCATTTCTTT', 'ATP', 1.01),
  ('TGGGGGCTTA', 'ATP', 0.99),
  ('TTTATCTGCT', 'ATP', 0.981),
  ('GTTTAGAGTC', 'ATP', 1),
  ('TGTCTACTCT', 'ATP', 1),
  ('AAAATGCTTT', 'ATP', 1.01),
  ('AAATCGCGGA', 'ATP', 1.05),
  ('GACTGGTTGC', 'ATP', 1),
  ('GCGTGATTTG', 'ATP', 0.996),
  ('ACTCGTTTAT', 'ATP', 0.99),
  ('GTGATTGGCG', 'ATP', 0.971),
  ('GTGGCTTAGG', 'ATP', 0.98),
  ('TGCTAGTTT', 'ATP', 0.98),
  ('AAAACGTTTG', 'ATP', 1.02),
  ('TTCAAGTGAA', 'ATP', 0.979),
  ('GCTTTTTTGA', 'ATP', 0.993),
  ('GGGGCTGCTT', 'ATP', 0.972),
  ('AGCATTGTCA', 'ATP', 1.01),
  ('CGCATTGTGA', 'ATP', 1.02),
  ('AAAGATATAA', 'ATP', 1.03),
  ('TTTACGTCCA', 'ATP', 1.1),
  ('GTTGTGAGGG', 'ATP', 0.981),
  ('CGGTCCGGGT', 'ATP', 0.997),
  ('GGGGTAGTCA', 'ATP', 1),
  ('ACGCCAATGT', 'ATP', 1.34),
  ('TTATTTGACT', 'ATP', 1.01),
  ('TTAAAGTTGC', 'ATP', 1.02),
  ('TATCGACGGC', 'ATP', 1.03),
  ('GTAGTAGCTT', 'ATP', 1.02),
  ('CGGAGTTTTG', 'ATP', 1.01),
  ('AGAGGCCAGG', 'ATP', 1.1),
  ('AATAAGGTAT', 'ATP', 0.965),
  ('TTTGGGCGGG', 'ATP', 1.01),
  ('CTGGAAAACC', 'ATP', 1.02),
  ('ATTTGAGGGC', 'ATP', 1.01),
  ('AAATTTGGTA', 'ATP', 1.04),
  ('ACCAGCTTTC', 'ATP', 1.16),
  ('GTAGTGCGGG', 'ATP', 0.954),
  ('ATGTAGTTCG', 'ATP', 0.981),
  ('TAGGGACTCT', 'ATP', 0.995),
  ('AGCACGGGGG', 'ATP', 1.19),
  ('GGGGATTGTG', 'ATP', 0.991),
  ('GCTATTATAC', 'ATP', 1.47),
  ('GTAAAGGGGA', 'ATP', 1.03),
  ('TTGAGATTGG', 'ATP', 0.998),
  ('ACGACTCCCG', 'ATP', 1.11),
  ('CCTCTGGGGG', 'ATP', 1.32),
  ('AAGTGAATGG', 'ATP', 0.999),
  ('TGGGAAATTT', 'ATP', 1.1),
  ('TCAAAAGTTG', 'ATP', 1.04),
  ('TTCTGTGTGG', 'ATP', 0.981),
  ('ACCGGGGTGC', 'ATP', 1.61),
  ('ACTGGGTCCT', 'ATP', 0.973),
  ('TAAGAAGTTA', 'ATP', 1.02),
  ('TATAATTTAC', 'ATP', 1.06),
  ('TGGGTAGAAA', 'ATP', 0.975),
  ('ACCTTAATTA', 'ATP', 1.1);
